Listing: IC50 of selected molecules
Molecular target: Poly [ADP-ribose] polymerase 2 (Homo sapiens, UniProt Q9UGN5)
Sequence (Q9UGN5 whole entry): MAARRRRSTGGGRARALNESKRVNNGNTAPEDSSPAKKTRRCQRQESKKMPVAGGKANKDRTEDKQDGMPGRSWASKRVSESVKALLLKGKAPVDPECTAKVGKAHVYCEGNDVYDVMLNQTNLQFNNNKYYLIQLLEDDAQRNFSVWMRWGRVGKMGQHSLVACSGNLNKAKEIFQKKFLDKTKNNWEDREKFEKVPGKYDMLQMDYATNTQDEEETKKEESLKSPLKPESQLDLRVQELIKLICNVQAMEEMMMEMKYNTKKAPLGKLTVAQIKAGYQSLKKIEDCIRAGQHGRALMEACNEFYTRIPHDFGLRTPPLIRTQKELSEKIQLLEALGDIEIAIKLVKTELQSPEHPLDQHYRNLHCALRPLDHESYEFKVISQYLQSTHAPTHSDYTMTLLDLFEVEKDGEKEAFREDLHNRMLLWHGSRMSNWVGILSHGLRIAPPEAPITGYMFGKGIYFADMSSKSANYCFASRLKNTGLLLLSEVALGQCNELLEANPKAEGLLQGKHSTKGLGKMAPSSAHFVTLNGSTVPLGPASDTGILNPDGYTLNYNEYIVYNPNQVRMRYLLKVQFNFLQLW
Assay: Inhibition of recombinant human full-length PARP-2 using biotinylated substrate

Would you mind telling me what IC50 value was observed for "O=C(c1cccs1)N1CCN(Cc2c(O)cc(O)c3c(=O)cc(-c4ccc(O)cc4)oc23)CC1" ?
1100 nM

Name the reported IC50 value associated with the molecule "Cc1ccc(-c2cc(=O)c3c(O)cc(O)c(-c4cccc(-c5cc(=O)c6c(O)cc(O)cc6o5)c4)c3o2)cc1C"
12700 nM

Find the recorded IC50 belonging to "COc1ccc(C(=O)N2CCN(Cc3c(O)cc(O)c4c(=O)cc(-c5ccc(O)cc5)oc34)CC2)cc1" and report it.
2500 nM

Returns the measured IC50 for the input molecule. Input: "CCOC(=O)C1CCN(Cc2c(O)cc(O)c3c(=O)cc(-c4ccc(O)cc4)oc23)CC1"
5600 nM

---

Target: CYP1A2 (Homo sapiens)
Sequence (P05177 whole entry): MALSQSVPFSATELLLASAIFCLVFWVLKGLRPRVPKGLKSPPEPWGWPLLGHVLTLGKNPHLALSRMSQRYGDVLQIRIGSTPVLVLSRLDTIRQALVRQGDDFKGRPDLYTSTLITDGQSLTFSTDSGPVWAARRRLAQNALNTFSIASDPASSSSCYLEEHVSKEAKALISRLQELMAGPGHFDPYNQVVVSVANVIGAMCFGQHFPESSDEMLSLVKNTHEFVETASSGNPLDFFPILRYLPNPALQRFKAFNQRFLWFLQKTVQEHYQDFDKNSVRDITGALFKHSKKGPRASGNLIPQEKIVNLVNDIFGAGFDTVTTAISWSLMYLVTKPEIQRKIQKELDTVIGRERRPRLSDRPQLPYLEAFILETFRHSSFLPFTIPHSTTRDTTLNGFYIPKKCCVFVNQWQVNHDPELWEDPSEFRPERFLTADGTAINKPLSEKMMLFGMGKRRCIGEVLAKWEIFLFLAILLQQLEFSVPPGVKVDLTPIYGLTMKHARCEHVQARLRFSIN
Assay: Inhibition of CYP1A2 (unknown origin) at 10 uM incubated for 10 to 30 mins in presence of NADPH regeneration system by microplate analysis relative to control
Type: ADME
Details: time 10-30 min
QUANTITY_NAME: inhibition at 10 µM
Reply with the number and its unit after it.

Which inhibition at 10 µM is reported with CYP1A2 (Homo sapiens) for this entry: "O=c1cc(-c2ccc(O)cc2)oc2c(CN3CCN(Cc4cccs4)CC3)c(O)cc(O)c12" ?
85.2%

---

# pIC50 listing for each entry below
Target: Poly [ADP-ribose] polymerase 2 (Homo sapiens, UniProt Q9UGN5)
Assay: Inhibition of recombinant human full-length PARP-2 using biotinylated substrate
Would you please state pIC50, meaning minus log10 of the concentration in mol/L, as a bare number?

Worked cases, answers included:
[[record]]
molecule = "O=C(c1cccnc1)N1CCN(Cc2c(O)cc(O)c3c(=O)cc(-c4ccc(O)cc4)oc23)CC1"
quantity_name = "pIC50"
measurement = 5.82

[[record]]
molecule = "O=c1cc(-c2cccc(-c3c(O)cc(O)c4c(=O)cc(-c5ccc(F)cc5)oc34)c2)oc2cc(O)cc(O)c12"
quantity_name = "pIC50"
measurement = 5.07

[[record]]
molecule = "O=c1cc(-c2ccc(O)cc2)oc2c(CN3CCN(Cc4ccc(F)cc4)CC3)c(O)cc(O)c12"
quantity_name = "pIC50"
measurement = 5.70


For "O=c1cc(-c2ccc(O)cc2)oc2c(CN3CCN(CC4CCCCC4)CC3)c(O)cc(O)c12" , what is its reported pIC50?
5.49

---

Target: UniProtKB Q9UGN5
Assay: Inhibition of recombinant human full-length PARP-2 using biotinylated substrate
# IC50 per entry
Your answer is read as nM, so omit the unit and give the number.

Item "Cc1ccc(CN2CCN(Cc3c(O)cc(O)c4c(=O)cc(-c5ccc(O)cc5)oc34)CC2)cc1" has what recorded IC50?
1800

Requested field: IC50. Item: "O=c1cc(-c2ccc(O)cc2)oc2c(CN3CC=C(c4ccccc4)CC3)c(O)cc(O)c12"
7900

Which IC50 is reported for this compound? "CC(C)CCN1CCN(Cc2c(O)cc(O)c3c(=O)cc(-c4ccc(O)cc4)oc23)CC1"
3700

Form field: reported IC50 of "O=C(C1CCC1)N1CCN(Cc2c(O)cc(O)c3c(=O)cc(-c4ccc(O)cc4)oc23)CC1"
2600

IC50 for O=c1cc(-c2ccc(O)cc2)oc2c(CN3CCN(CC4CCCO4)CC3)c(O)cc(O)c12 (configuration not stated) ?
2500

Would you kindly share the measured IC50 for "Cc1cc(C)cc(COC(=O)N2CCN(Cc3c(O)cc(O)c4c(=O)cc(-c5ccc(O)cc5)oc34)CC2)c1" ?
2000

Consider the compound shown here: "O=c1cc(-c2ccc(O)cc2)oc2c(CN3CCN(Cc4ccoc4)CC3)c(O)cc(O)c12" What is its recorded IC50?
2600

What value of measured IC50 is listed for "O=c1cc(-c2cccc(-c3c(O)cc(O)c4c(=O)cc(-c5ccc(O)c(O)c5)oc34)c2)oc2cc(O)cc(O)c12" ?
29500

For the compound "O=c1cc(-c2cccc(-c3c(O)cc(O)c4c(=O)cc(-c5cccs5)oc34)c2)oc2cc(O)cc(O)c12" , what IC50 is on record?
11100

What does the record list as IC50 for "O=c1cc(-c2ccc(O)cc2)oc2c(CN3CCN(c4ccccc4)CC3)c(O)cc(O)c12" ?
2100

I'd like to know its IC50. The compound in question is "O=c1cc(-c2ccc(O)cc2)oc2c(CN3CCN(c4ccc(F)cc4)CC3)c(O)cc(O)c12"
2900

# IC50 lookup, item "O=c1cc(-c2ccc(O)cc2)oc2c(CN3CCN(Cc4ccncc4)CC3)c(O)cc(O)c12"
1100

What does the data say about its IC50? Entry: "O=C(OCc1ccccc1)N1CCN(Cc2c(O)cc(O)c3c(=O)cc(-c4ccc(O)cc4)oc23)CC1"
2100
